The measured values listed here are drawn from PubChem BioAssay (Tox21).

- protocolNotes: qHTS assay to identify small molecule antagonists of the estrogen related receptor (ERR) signaling pathway (AID 1224819; note: nearly all actives have a fitted effect of over 50% in size; note: potency is the fitted concentration of half-maximal effect)
- testContext: ERR reporter cell line, luciferase inhibition; series mostly up to 92.2 µM
Inconclusive results are not listed. Active and inactive are the calls of the source. Calls come from the whole dose curve; as a rule, active = well fitted inhibition curve with a large enough effect in the repeat runs; inconclusive = weak or mixed curves; inactive = no such curve, though single readings can be large or run the other way.
parameter: Potency

1) S=P(N1CC1)(N1CC1)N1CC1	inactive
2) Cc1cc2c(C(C)C)c(O)c(O)c(C=O)c2c(O)c1-c1c(C)cc2c(C(C)C)c(O)c(O)c(C=O)c2c1O	2.76 µM (active)
3) O=C1NCN(c2ccccc2)C12CCN(CCCC(c1ccc(F)cc1)c1ccc(F)cc1)CC2	23.7 µM (active)
4) O=C1c2c(O)ccc(O)c2C(=O)c2c(NCCNCCO)ccc(NCCNCCO)c21	1.44 µM (active)
5) CCCCCCCC/C=C\CCCCCCCC(=O)NCc1ccc(O)c(OC)c1	inactive
6) CC(C)OC(=O)c1cc(C(=O)OC(C)C)cc([N+](=O)[O-])c1	inactive
